molecular target: UniProt:P08908; assay: The compound was evaluated for its ability to displace [3H]-8-OH-DPAT from 5-hydroxytryptamine 1A receptor in cellular brain membranes
Sequence (P08908 whole entry): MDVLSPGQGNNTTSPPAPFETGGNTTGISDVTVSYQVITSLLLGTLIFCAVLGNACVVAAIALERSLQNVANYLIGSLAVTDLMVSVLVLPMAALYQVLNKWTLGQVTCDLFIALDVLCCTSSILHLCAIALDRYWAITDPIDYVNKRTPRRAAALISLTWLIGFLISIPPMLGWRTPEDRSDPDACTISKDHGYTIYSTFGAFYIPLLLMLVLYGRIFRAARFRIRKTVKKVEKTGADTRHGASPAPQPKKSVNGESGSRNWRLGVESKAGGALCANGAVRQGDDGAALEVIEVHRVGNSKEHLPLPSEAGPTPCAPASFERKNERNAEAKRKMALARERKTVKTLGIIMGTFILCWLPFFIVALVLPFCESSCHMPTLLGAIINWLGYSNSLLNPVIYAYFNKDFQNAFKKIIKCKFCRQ
measurementKind: log10 of IC50 (log10 of the value in nM)

# molecule, log10 of IC50
rows = [
    ("CCCN(CCCCN1C(=O)c2ccccc2S1(=O)=O)C1COc2cccc(OC)c2C1 (stereo not given)", 0.00),
    ("CCCN(CCCCNc1ccc([N+](=O)[O-])c2nonc12)C1COc2cccc(OC)c2C1 (stereo not given)", 2.00),
    ("CCCN(CCCCNC(=O)c1cc(=O)oc2c3c4c(cc12)CCCN4CCC3)C1COc2cccc(OC)c2C1 (stereo not given)", -0.52),
    ("CCCN(CCCCN1C(=O)CC2(CCCC2)CC1=O)C1COc2cccc(OC)c2C1 (stereo not given)", -0.70),
    ("CCCN(CCCCN1C(=O)c2ccccc2C1=O)C1COc2cccc(OC)c2C1 (stereo not given)", 1.70),
]
